Biological target: XIAP BIR-3 (Homo sapiens)
Construct: 40 nM of the respective IAP BIR3
Sequence (P98170 241-356 limits assumed): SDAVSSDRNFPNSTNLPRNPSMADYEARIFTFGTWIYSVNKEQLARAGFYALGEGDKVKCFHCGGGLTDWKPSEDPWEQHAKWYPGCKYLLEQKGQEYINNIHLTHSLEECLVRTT
Experiment: Fluorescence polarization binding affinity to XIAP BIR-3 (competition with AbuRPF-K(5-Fam)-NH2)
Conditions: 5 nM labeled peptide, 40 nM BIR3, 15 min at RT, pH 7.5; reported as ranges
Provide the recorded Kd for the entries that follow.

Requested field: Kd. Item: CN[C@@H](C)C(=O)N[C@H](C(=O)N1CC[C@@H]2[C@H]1[C@@H](c1c[nH]c3cc(F)ccc13)CN2C(=O)Cc1ccccc1)C1CCCCC1 [Example 39]
< 100 nM

Next molecule: CN[C@@H](C)C(=O)N[C@H](C(=O)N1CC[C@@H]2[C@H]1[C@@H](c1c[nH]c3cc(F)ccc13)CN2C1CCCC1)[C@@H](C)OC [Example 16]
100 to 1000 nM

CN[C@@H](C)C(=O)N[C@H](C(=O)N1CC[C@@H]2[C@H]1[C@@H](c1c[nH]c3cc(F)ccc13)CN2c1ncccn1)C(C)(C)C [Example 79] ?
< 100 nM

Same thing, different molecule: CN[C@@H](C)C(=O)N[C@H](C(=O)N1CC[C@@H]2[C@H]1[C@@H](c1c[nH]c3cc(F)ccc13)CN2c1ncccn1)[C@@H](C)OC [Example 83]
< 100 nM

Same read-out for CN[C@@H](C)C(=O)N[C@H](C(=O)N1CC[C@@H]2[C@H]1[C@@H](c1c[nH]c3cc(F)ccc13)CN2Cc1ccccc1)C(C)C [Example 105] ?
100 to 1000 nM

Moving on to CN[C@@H](C)C(=O)N[C@H](C(=O)N1CC[C@@H]2[C@H]1[C@@H](c1c[nH]c3cc(F)ccc13)CN2C(C)=O)C1CCCCC1 [Example 59]
< 100 nM

How about this molecule: CCOC(=O)CN1C[C@H](c2c[nH]c3cc(F)ccc23)[C@@H]2[C@H]1CCN2C(=O)[C@@H](NC(=O)[C@H](C)NC)C1CCCCC1 [Example 41]
< 100 nM

Also, CN[C@@H](C)C(=O)N[C@H](C(=O)N1CC[C@@H]2[C@H]1[C@@H](c1c[nH]c3cc(F)ccc13)CN2Cc1cccnc1)C1CCCCC1 [Example 25] please.
< 100 nM

Try this molecule next: CN[C@@H](C)C(=O)N[C@H](C(=O)N1CC[C@@H]2[C@H]1[C@H](c1c[nH]c3cc(F)ccc13)CN2C(C)=O)C1CCCCC1 [Example 96]
1000 to 10000 nM

And the next one, CC[C@H](NC(=O)[C@H](C)NC)C(=O)N1CC[C@@H]2[C@H]1[C@@H](c1c[nH]c3cc(F)ccc13)CN2S(C)(=O)=O [Example 46] ?
< 100 nM

Try CN[C@@H](C)C(=O)N[C@H](C(=O)N1CC[C@@H]2[C@H]1[C@@H](c1c[nH]c3cc(F)ccc13)CN2S(C)(=O)=O)C(C)O (some centres unmarked) [Example 56] next.
< 100 nM

* * *

Could you please report measured Kd for the items listed next?
Target: XIAP BIR-3 (Homo sapiens)
Construct: 40 nM of the respective IAP BIR3
Test: Fluorescence polarization binding affinity to XIAP BIR-3 (competition with AbuRPF-K(5-Fam)-NH2)
Settings: 5 nM labeled peptide, 40 nM BIR3, 15 min at RT, pH 7.5; reported as ranges

Consider the molecule shown here: `C[C@H](N)C(=O)N[C@H](C(=O)N1CC[C@H]2NC[C@H](c3c[nH]c4cc(F)ccc34)[C@H]21)C1CCCCC1` What is its recorded Kd?
< 100 nM

Same read-out for `CN[C@@H](C)C(=O)N[C@H](C(=O)N1CC[C@H]2NC[C@@H](c3c[nH]c4ccccc34)[C@H]21)[C@@H](C)OC` ?
> 10000 nM

// same read-out, input: `CN[C@@H](C)C(=O)N[C@@H](COC)C(=O)N1CC[C@@H]2[C@H]1[C@@H](c1c[nH]c3ccc(F)cc13)CN2C(C)=O`
< 100 nM

Also check `CC[C@H](NC(=O)[C@H](C)NC)C(=O)N1CC[C@@H]2[C@H]1[C@@H](c1c[nH]c3cc(F)ccc13)CN2C(C)=O`
< 100 nM

Cool, now CNC(C)C(=O)NC(C(=O)N1CC(c2c[nH]c3cc(F)ccc23)C2C1CCN2C(=O)C(NC(=O)C(C)NC)C1CCCCC1)C1CCCCC1 (centres unmarked)
< 100 nM

Same question for `CN[C@@H](C)C(=O)N[C@H](C(=O)N1CC[C@@H]2[C@H]1[C@@H](c1c[nH]c3cc(F)ccc13)CN2S(C)(=O)=O)C1CCCCC1` please.
< 100 nM

Try this molecule next: `CN[C@@H](C)C(=O)N[C@@H](CO)C(=O)N1CC[C@@H]2[C@H]1[C@H](c1c[nH]c3cc(F)ccc13)CN2S(C)(=O)=O`
> 10000 nM

Next molecule up: `CN[C@@H](C)C(=O)N[C@H](C(=O)N1CC[C@H]2NC[C@H](c3c[nH]c4cc(F)ccc34)[C@H]21)[C@@H](C)O`
100 to 1000 nM

Entry `CN[C@@H](C)C(=O)N[C@H](C(=O)N1CC[C@@H]2[C@H]1[C@@H](c1c[nH]c3cc(F)ccc13)CN2C(C)=O)[C@@H](C)OC` please
< 100 nM

Same question for `CN[C@@H](C)C(=O)N[C@H](C(=O)N1CC[C@H]2NCC[C@H]21)C1CCCCC1` please.
1000 to 10000 nM

And then `CN[C@@H](C)C(=O)N[C@H](C(=O)N1CC[C@@H]2[C@H]1[C@@H](c1c[nH]c3cc(F)ccc13)CN2S(C)(=O)=O)[C@@H](C)OC` , what is it?
< 100 nM

Let us now turn to CN[C@@H](C)C(=O)NC(C)C(=O)N1CC[C@@H]2[C@H]1[C@@H](c1c[nH]c3cc(F)ccc13)CN2C(C)=O (some centres unmarked)
< 100 nM

Do the same for `CC[C@H](NC(=O)[C@H](C)NC)C(=O)N1CC[C@@H]2[C@H]1[C@@H](c1c[nH]c3cc(F)ccc13)CN2C1CCCC1` please
100 to 1000 nM

Let us now turn to `CN[C@@H](C)C(=O)N[C@H](C(=O)N1CC[C@@H]2[C@H]1[C@@H](c1c[nH]c3cc(F)ccc13)CN2c1nccc(Cl)n1)C1CCCCC1`
< 100 nM

Field entry: `CN[C@@H](C)C(=O)N[C@H](C(=O)N1CC[C@H]2NC[C@H](c3c[nH]c4cc(F)ccc34)[C@H]21)C(C)C`
< 100 nM

Same question, `CN[C@@H](C)C(=O)N[C@H](C(=O)N1CC[C@@H]2[C@H]1[C@@H](c1c[nH]c3cc(F)ccc13)CN2Cc1ccncc1)C1CCCCC1` this time
< 100 nM

Cool, now `CN[C@@H](C)C(=O)N[C@@H](COC)C(=O)N1CC[C@H]2NC[C@H](c3c[nH]c4cc(F)ccc34)[C@H]21`
< 100 nM

How about `CN[C@@H](C)C(=O)N[C@H](C(=O)N1CC[C@@H]2[C@H]1[C@@H](c1c[nH]c3cc(F)ccc13)CN2C(C)=O)C(C)C` ?
< 100 nM

Okay, and `CN[C@@H](C)C(=O)N[C@@H](COC)C(=O)N1CC[C@@H]2[C@H]1[C@@H](c1c[nH]c3cc(F)ccc13)CN2C1CCCC1` ?
1000 to 10000 nM

Similarly, `CN[C@@H](C)C(=O)N[C@H](C(=O)N1CC[C@H]2NC[C@H](c3c[nH]c4cc(F)ccc34)[C@H]21)C(C)(C)C` ?
100 to 1000 nM

Try this molecule too: `CN[C@@H](C)C(=O)N[C@H](C(=O)N1CC[C@@H]2[C@H]1CCN2C(=O)OCc1ccccc1)C1CCCCC1`
1000 to 10000 nM

Do the same for `CN[C@@H](C)C(=O)N[C@H](C(=O)N1CC[C@@H]2[C@H]1[C@@H](c1c[nH]c3ccc(F)cc13)CN2C(C)=O)C(C)(C)C` please
< 100 nM

Queued: `CN[C@@H](C)C(=O)N[C@H](C(=O)N1CC[C@H]2NC[C@H](c3c[nH]c4ccccc34)[C@H]21)[C@@H](C)OC`
< 100 nM
